# assay-details: growth suppression of PTEN-deleted HCT116, pilot screen, cell-based, HCT116 clonal line, CellTiter-Glo (AID 824);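 note: 0% = 20 µM Hyamine control and 100% = vehicle cell control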
# experimental-context: 60 h, at 10 µM, hits give low values
Results filed as inconclusive are left out.
Please provide measured viability for the entries that follow.
# unit: % | format: bare number

-- ask I have this compound here, Cc1nc(N2CCN(C)CC2)c2sc(=S)n(-c3ccccc3)c2n1 , and I need its recorded viability.
-- reply 86.1

-- ask Please give the result for CC(C)C(=O)N=c1sc2cc(F)cc(F)c2n1C too.
-- reply 99

-- ask Please give the result for Cn1c(Cn2c(=O)sc3ccccc32)nnc1SCC(=O)Nc1cccc(Cl)c1 too.
-- reply 98.8

-- ask Please give the result for Cc1ccnc(SCC(=O)O)n1 too.
-- reply 101

-- ask Please give the result for COC(=O)c1ccsc1NC(=O)c1ccc(Cl)s1 too.
-- reply 87.9

-- ask Please give the result for CSc1cc(/C=N/O)c(SC)s1 too.
-- reply 95.9

-- ask Please give the result for CC(=O)Nc1ccc2nc(-c3cccs3)[nH]c2c1 too.
-- reply 90.3

-- ask Please give the result for COc1ccc(-c2nc(CSCC(=O)N3CCN(C4CCCCC4)CC3)c(C)o2)cc1OC too.
-- reply 96.3

-- ask Please give the result for CCOc1ccc(-c2nc(CSCC(=O)N3CCN(C(=O)c4ccco4)CC3)c(C)o2)cc1 too.
-- reply 90.4

-- ask Please give the result for O=C(Nc1cccc(Br)c1)c1cc2ccccc2o1 too.
-- reply 64.3

-- ask Please give the result for O=c1oc(-c2cccs2)nc2sc3c(c12)CCCCC3 too.
-- reply 80.3

-- ask Please give the result for Cc1cc(C(=O)NCc2ccco2)cs1 too.
-- reply 99.9

-- ask Please give the result for Cc1cc(=O)[nH]c(SCc2cc(=O)n3nc(C)sc3n2)n1 too.
-- reply 96.5

-- ask Please give the result for CC12CCC(C(=O)NCc3ccco3)(OC1=O)C2(C)C (centres undefined) too.
-- reply 93.2

-- ask Please give the result for O=C(CCc1nc2ccccc2[nH]1)NCc1ccc2c(c1)OCO2 too.
-- reply 91.7

-- ask Please give the result for Cc1nnc(NC(=O)CSc2nnc(Cc3cccn3C)n2-c2ccccc2)s1 too.
-- reply 95.3

-- ask Please give the result for CCN1CCN(C(=O)Cn2ncc3c2-c2ccccc2OC3)CC1 too.
-- reply 99.9

-- ask Please give the result for Cn1c(CNC(=O)C(C)(C)C)nc2ccccc21 too.
-- reply 93.1

-- ask Please give the result for Cn1c(=O)c2c(SCC(=O)NCc3ccco3)nc(CC(C)(C)C)nc2n(C)c1=O too.
-- reply 70.6

-- ask Please give the result for CC(=O)N1CCc2cc(C(=O)CN3CCCCC3)ccc21 too.
-- reply 94.7

-- ask Please give the result for Cc1ccc(S(=O)(=O)N(C)Cc2nc(-c3ccc(Br)cc3)no2)cc1 too.
-- reply 87.8

-- ask Please give the result for CCCCCn1c(SCC(=O)OC)nc2c1c(=O)[nH]c(=O)n2C too.
-- reply 102

-- ask Please give the result for Cc1cc(=O)oc2c(N)c(O)ccc12 too.
-- reply 98.5

-- ask Please give the result for O=C(Nc1ccc(S(=O)(=O)N2CCCC2)cc1)C1COc2ccccc2O1 (centres undefined) too.
-- reply 83

###

Please provide measured RAM network inhibition for the entries that follow.
# assay-details: RAM signaling pathway blockade in yeast – S. cerevisiae, Pdr1DBD-CYC8 efflux-inhibited sensitized strain, primary screen (AID 1298);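 note: 0% = DMSO untreated cells without growth and 100% = 10 µM 1-NA-PP1 full growth; higher means more yeast growth rescued from 5-FOA killing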
# experimental-context: S. cerevisiae cbk1-as DSE1-URA3 strain, 5-FOA growth OD615, 2 d; at 50 µM; hits give high values
# unit: % | format: bare number

-- ask I have this compound here, CCOc1ccc(C2CC(c3cccc(OC)c3)n3nc(N)nc3N2)cc1 (centres undefined) , and I need its recorded RAM network inhibition.
-- reply 4.58

-- ask Please give the result for CCOC(=O)c1cccc(NC(=O)C2CCC(CNc3c(N4CCOCC4)c(=O)c3=O)CC2)c1 (centres undefined) too.
-- reply 1.31

-- ask Please give the result for Cc1ccc(S(=O)(=O)NC2OC(=O)C(Cl)=C2Cl)cc1 (centres undefined) too.
-- reply 2.08

-- ask Please give the result for Cc1c(C(=O)N2CCN(C(=O)c3ccco3)CC2)sc2nc(-c3ccc(F)cc3)cn12 too.
-- reply 3.7

-- ask Please give the result for CCOc1ccccc1N1C(=O)CC(Nc2ccc(N3CCOCC3)cc2)C1=O (centres undefined) too.
-- reply 5.11

-- ask Please give the result for CCOC(=O)CN1CC23C=CC(O2)C(C(=O)NC2CCCCCC2)C3C1=O (centres undefined) too.
-- reply 0.37

-- ask Please give the result for CCOc1ccc(N(CC(=O)NCc2ccc(F)cc2)S(=O)(=O)c2c(C)noc2C)cc1 too.
-- reply 2.84

-- ask Please give the result for CC(CC1C(C#N)=C(N)OC2=C1C(=O)CCC2)c1ccccc1 (centres undefined) too.
-- reply 5.88

-- ask Please give the result for CCN1CCN(C(=O)Cn2c(=O)sc3ccccc32)CC1 too.
-- reply 0.05

-- ask Please give the result for O=C1CCc2cc(S(=O)(=O)NC(Cc3ccccc3)C(=O)NCC3CCCO3)ccc2N1 (centres undefined) too.
-- reply 1.49

-- ask Please give the result for C=CCOc1ccc(/C(O)=C2/C(=O)C(=O)N(CCCn3ccnc3)C2c2cccs2)cc1 (centres undefined) too.
-- reply 1.02

-- ask Please give the result for O=C(Cn1c(S(=O)(=O)Cc2ccccc2)nc2ccccc21)N1CCCCC1 too.
-- reply 3.73

-- ask Please give the result for O=C(CSc1nnc(Cn2c(=O)sc3ccccc32)n1-c1ccccc1)N1CCCCCC1 too.
-- reply 6.65

-- ask Please give the result for COc1ccccc1N1CCN(C(CNS(=O)(=O)c2cccs2)c2cccnc2)CC1 (centres undefined) too.
-- reply 5.16

-- ask Please give the result for c1nc(N2CCNCC2)c2sc3nc(N4CCOCC4)c4c(c3c2n1)CCC4 too.
-- reply 7.31

-- ask Please give the result for Cc1ccc(/C(O)=C2\C(=O)C(=O)N(CCN(C)C)C2c2ccccc2F)cc1 (centres undefined) too.
-- reply -1.02

-- ask Please give the result for CCn1c(C(C)NC(=O)c2cccs2)nc2ccccc21 (centres undefined) too.
-- reply 6.3

-- ask Please give the result for Cn1cc(S(=O)(=O)CC(=O)Nc2ccc3c(c2)OCO3)c2ccccc21 too.
-- reply 5.14

-- ask Please give the result for CCOC(=O)C1=C(Nc2cccc(Cl)c2)OCC1=O too.
-- reply 4.51

-- ask Please give the result for CCC1Oc2ccc(C)cc2N(CC(=O)NCCc2ccc(OC)c(OC)c2)C1=O (centres undefined) too.
-- reply -0.46

-- ask Please give the result for CCOc1ccc(CCNC(=O)c2oc3c(c2C)-c2[nH]ncc2CC3)cc1OCC too.
-- reply 9.8

-- ask Please give the result for COc1ccc(CCNC(=O)CN(c2ccccc2OC)S(C)(=O)=O)cc1OC too.
-- reply 1.38

-- ask Please give the result for CCOc1ccccc1CNS(=O)(=O)c1ccc2c(c1)oc(=O)n2C too.
-- reply 1.03

-- ask Please give the result for O=C(CNC(=O)c1cnccn1)Nc1ccc(F)c(F)c1F too.
-- reply 7.87

-- ask Please give the result for CC1CCCCN1S(=O)(=O)c1coc(C(N)=O)c1 (centres undefined) too.
-- reply 0.05

-- ask Please give the result for Cc1ccc2c(c1)N(CCCC(=O)NCCCN1CCCC1=O)C(=O)CO2 too.
-- reply 1.27

-- ask Please give the result for COc1ccccc1C(=O)NCc1ccc2c(c1)OCO2 too.
-- reply 2.54

-- ask Please give the result for CCOC(=O)Nc1ccccc1C(=O)N1CCOCC1 too.
-- reply 2.52

-- ask Please give the result for CN(C)c1nc(Oc2ccc(/C=N/O)cc2)nc(N(C)C)n1 too.
-- reply 2.8

-- ask Please give the result for Cc1cc2oc(C(=O)Nc3cccnc3)c(C)c2cc1C too.
-- reply 1.77

-- ask Please give the result for COC(=O)C1C(=O)c2c([nH]c(C(=O)OC3CCCCC3)c2C)CC1C (centres undefined) too.
-- reply 2.04

-- ask Please give the result for O=C1c2ccccc2C(O)N1c1ccc(Cl)cc1 (centres undefined) too.
-- reply 1.49

-- ask Please give the result for CCOC(=O)CC1C(=O)NCCN1Cc1cccc(C(F)(F)F)c1 (centres undefined) too.
-- reply -0.14

-- ask Please give the result for O=c1c(/C=N/O)c(Nc2ccccc2)nc2ccccn12 too.
-- reply 4.18

-- ask Please give the result for O=C(C1CCCN1S(=O)(=O)c1cccc2cccnc12)N1CCc2ccccc2C1 (centres undefined) too.
-- reply 0.84

-- ask Please give the result for NC(=O)c1ccc(N2CCCCC2)c(N2C(=O)CCC2=O)c1 too.
-- reply 2.67

-- ask Please give the result for C=CCn1c(NCc2cc(C)ccc2O)nc2ccccc21 too.
-- reply 2.04

-- ask Please give the result for Cc1ccc(-c2csc(N3CCC(C(N)=O)(N4CCCCC4)CC3)n2)cc1 too.
-- reply 2.58

-- ask Please give the result for CCCCOc1ccccc1C1C(C(=O)OC)=CN(CC)C=C1C(=O)OC too.
-- reply 6.73
